Values from patent US20250163038A1

- System: Jurkat (clone E6-1) cells with NFAT luciferase reporter
- Experiment Notes: Jurkat reporter assay (NFAT Luciferase)
- Format: cell-based
- Test Conditions: Homo sapiens; Jurkat NFAT luciferase reporter cells, anti-CD3 stimulation, 6 hr; read-out: Jurkat NFAT EC50
pEC50: −log10 of the molar value.
Value Type: pEC50

Answer with the recorded pEC50 for the compound listed here: Cn1cnnc1-c1cc(F)ccc1-c1cccc(-c2nc3cc(CNC4CC4)cc(C(F)(F)F)c3o2)c1
> 6.70

Output pEC50 of CN(Cc1cc(C(F)(F)F)c2oc(-c3cccc(-c4ccc(F)cc4-c4nncn4C)c3)nc2c1)CC1CCC1
6.00 to 6.70

Entry Cn1cnnc1-c1cc(F)ccc1-c1cc(-c2nc3cc(CNCC4CC4)ccc3o2)nc(C2CC2)c1 needs its pEC50 filled in; supply it.
6.00 to 6.70

Note pEC50 for the compound shown: COc1cc(CN[C@@H]2CCC[C@]2(C)O)cc2nc(-c3cccc(-c4ccc(F)cc4-c4nncn4C)c3)oc12
5.00 to 6.00

For the compound Cn1cnnc1-c1cc(F)ccc1-c1cc(-c2nc3cc(CNCC4(F)CCC4)cc(F)c3o2)nc(C2CC2)c1 , give its reported pEC50.
6.00 to 6.70

Return pEC50 (reported value) for this compound: Cc1cc(CNCC2(F)CCC2)cc2nc(-c3cccc(-c4ccc(F)cc4-c4nncn4C)c3)oc12
6.00 to 6.70

Item CC(C)CNCc1cc(C(F)(F)F)c2oc(-c3cccc(-c4ccc(F)cc4-c4nncn4C)c3)nc2c1 : provide pEC50
> 6.70

Given C[C@H](NCc1cc(C(F)(F)F)c2oc(-c3cccc(-c4ccc(F)cc4-c4nncn4C)c3)nc2c1)C1CCC1 , respond with its pEC50.
> 6.70

Read the entry Cn1cnnc1-c1cc(F)ccc1-c1cc(-c2nc3cc(CN[C@@H]4CCC[C@@H]4O)c(F)c(F)c3o2)nc(C2CC2)c1 and write its reported pEC50.
> 6.70

Specify measured pEC50 for Cc1cc(CNCC2(O)CCC2)cc2nc(-c3cccc(-c4ccc(F)cc4-c4nncn4C)c3)oc12 .
> 6.70

Query pEC50 for COCCNCc1cc(C(F)(F)F)c2oc(-c3cc(-c4ccc(F)cc4-c4nncn4C)cc(C4CC4)n3)nc2c1
> 6.70

// Input: CN(Cc1cc(Cl)c2oc(-c3cccc(-c4ccc(F)cc4-c4nncn4C)c3)nc2c1)[C@@H]1CCC[C@@H]1O . Output its pEC50 only.
> 6.70

Please list pEC50 recorded for the compound Cn1cnnc1-c1cc(F)ccc1-c1cccc(-c2nc3cc(CNCC4(O)CCCC4)cc(C(F)(F)F)c3o2)c1
6.00 to 6.70

Give pEC50 for the following compound: COCC1(CNCc2cc(C(F)(F)F)c3oc(-c4cccc(-c5ccc(F)cc5-c5nncn5C)c4)nc3c2)CCCC1
6.00 to 6.70

###

- Tested System: Recombinant human Cbl-b (aa 36-427) (Homo sapiens, UniProt Q13191)
- Sequence (Q13191 36-427): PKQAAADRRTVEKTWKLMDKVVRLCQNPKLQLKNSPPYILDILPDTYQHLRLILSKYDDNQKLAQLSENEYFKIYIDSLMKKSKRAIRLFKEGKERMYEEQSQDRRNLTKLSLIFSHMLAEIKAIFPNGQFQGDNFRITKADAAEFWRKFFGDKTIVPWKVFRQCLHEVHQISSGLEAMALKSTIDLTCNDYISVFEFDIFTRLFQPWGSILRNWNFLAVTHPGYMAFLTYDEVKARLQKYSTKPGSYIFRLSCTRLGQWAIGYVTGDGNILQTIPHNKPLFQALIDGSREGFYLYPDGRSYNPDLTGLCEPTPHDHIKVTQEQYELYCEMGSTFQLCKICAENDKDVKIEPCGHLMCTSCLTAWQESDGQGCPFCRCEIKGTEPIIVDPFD
- Experiment Notes: Cbl-b Biochemical Assay (TR-FRET)
- Test Conditions: read-out: TR-FRET hCbl-b IC50
Measured IC50 accompanies every entry in the list below.

Known results for compounds:
compound=COc1cccc2oc(-c3cccc(-c4ccc(F)cc4-c4nncn4C)c3)nc12 recorded_value="1000 to 10000 nM"
compound=COc1cc(CN[C@H]2C[C@@H](O)C2)cc2nc(-c3cccc(-c4ccc(F)cc4-c4nncn4C)c3)oc12 recorded_value="< 200 nM"
compound="Cn1cnnc1-c1cc(F)ccc1-c1cccc(-c2nc3cc(CNC[C@H](O)C4CC4)cc(C(F)(F)F)c3o2)c1 (single isomer, unassigned)" recorded_value="< 200 nM"
compound=Cn1cnnc1-c1cc(Cl)ccc1-c1cccc(-c2nc3cc(CN[C@@H]4CCC[C@@H]4O)cc(C(F)(F)F)c3o2)c1 recorded_value="< 200 nM"
compound=CO[C@H]1CCC[C@H]1N(C)Cc1cc(C(F)(F)F)c2oc(-c3cccc(-c4ccc(F)cc4-c4nncn4C)c3)nc2c1 recorded_value="< 200 nM"
compound=Cn1cnnc1-c1cc(Cl)ccc1-c1cccc(-c2nc3cc(CN[C@@H]4CCC[C@@H]4O)cc(C(F)(F)F)c3[nH]2)c1 recorded_value="< 200 nM"

Note down IC50 recorded for Cn1cnnc1-c1cc(C#N)ccc1-c1cccc(-c2nc3cc(CO)cc(C(F)(F)F)c3o2)c1
< 200 nM

Report measured IC50; entry is COc1cc(CN[C@@H]2CCC[C@@H]2O)cc2nc(-c3cccc([C@]4(c5nncn5C)C[C@@H](C)C4)c3)oc12
< 200 nM

Give reported IC50 value for COc1cc(CNCCC2CCC2)cc2nc(-c3cccc(-c4ccc(F)cc4-c4nncn4C)c3)oc12
< 200 nM

Fill in reported IC50 for this entry: Cn1cnnc1-c1ccccc1-c1cccc(-c2nc3ccc(Br)c(C(F)(F)F)c3[nH]2)c1
10000 to 50000 nM

Return IC50 for the following compound: Cn1cnnc1-c1cc(F)ccc1-c1cccc(-c2nc3cc(CNC[C@H]4CCCO4)cc(C(F)(F)F)c3o2)c1
< 200 nM
